- system: DNA topoisomerase 1 (Homo sapiens) (UniProt P11387)
- Sequence (P11387 whole entry): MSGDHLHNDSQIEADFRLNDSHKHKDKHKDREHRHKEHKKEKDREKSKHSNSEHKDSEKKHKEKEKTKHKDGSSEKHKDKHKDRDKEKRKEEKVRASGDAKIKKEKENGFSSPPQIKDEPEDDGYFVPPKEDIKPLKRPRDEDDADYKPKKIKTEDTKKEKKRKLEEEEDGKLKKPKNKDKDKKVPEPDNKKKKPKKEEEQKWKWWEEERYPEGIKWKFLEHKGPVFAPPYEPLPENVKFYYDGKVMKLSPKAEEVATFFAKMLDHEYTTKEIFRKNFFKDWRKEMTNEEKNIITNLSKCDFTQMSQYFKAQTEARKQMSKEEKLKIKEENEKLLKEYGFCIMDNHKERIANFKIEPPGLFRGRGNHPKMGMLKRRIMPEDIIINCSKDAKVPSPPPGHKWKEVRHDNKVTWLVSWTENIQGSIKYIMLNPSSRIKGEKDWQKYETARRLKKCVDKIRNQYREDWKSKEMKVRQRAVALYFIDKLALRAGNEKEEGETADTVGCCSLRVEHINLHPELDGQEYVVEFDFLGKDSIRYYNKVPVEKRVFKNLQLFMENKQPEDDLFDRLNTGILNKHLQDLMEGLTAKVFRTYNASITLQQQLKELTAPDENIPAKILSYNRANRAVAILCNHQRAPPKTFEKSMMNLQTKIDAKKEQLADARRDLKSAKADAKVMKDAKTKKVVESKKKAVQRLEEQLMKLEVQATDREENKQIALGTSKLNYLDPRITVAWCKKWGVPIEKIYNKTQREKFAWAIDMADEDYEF
- assay-protocol: Inhibition of recombinant human Top1 expressed in Saccharomyces cerevisiae null strain RS190 assessed as decrease in relaxation of supercoiled plasmid DNA at 100 uM using supercoiled plasmid DNA as substrate incubated for 15 sec by red staining based DNA relaxation assay relative to camptothecin
Decision: inhibition compared against 4%; not below it gives 1.0, below it gives 0.0.

compound: O=C1Oc2ccccc2[C@H]2Nc3cccnc3[C@@H](c3ccccc3)[C@H]12 (relative stereo)
system: DNA topoisomerase 1 (Homo sapiens) (UniProt P11387)
class-label: 1.0

compound: O=c1oc2ccccc2c2nc3cccnc3c(-c3ccccc3)c12
system: DNA topoisomerase 1 (Homo sapiens) (UniProt P11387)
class-label: 1.0

compound: Fc1ccc2c(c1)-c1nc3cccnc3c(-c3ccccc3)c1CO2
system: DNA topoisomerase 1 (Homo sapiens) (UniProt P11387)
class-label: 0.0

Attention now shifts to the item below.
inhibition >= 4% for `c1ccc(-c2c3c(nc4cccnc24)-c2ccccc2OC3)cc1` ?
1.0
